- Tested on: S. cerevisiae Burl-1 ts mutant growth, BacTiter-Glo, 38.5C 24 h
- assay_text: restored growth of temperature-sensitive Burl-1 yeast – whole organism, S. cerevisiae, Burl-1 ts mutant, luminescence, counter-screen for SUMOylation pathway inhibitor project, dose response (AID 463199)
Active and inactive are the calls of the source.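 Rule for the calls: active = AC50, the dose giving half-maximal effect, exceeds a fixed cutoff for a compound that rescues yeast growth under heat; inactive = the rest, inconclusive results apart.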
Tick one outcome: active, inactive

Recorded call for CCN(C(=O)COC(=O)c1c(-c2ccccc2)noc1C)c1c(N)n(Cc2ccccc2)c(=O)[nH]c1=O ? inactive

Next record, please: CC(Oc1ccc([N+](=O)[O-])cc1)C(=O)NCCCN1CCOCC1 (centres undefined) inactive

Next record, please: CC(=O)Nc1ccc(/C(C)=N/NC(=O)c2ccncc2)cc1 inactive

Next record, please: O=c1cnc2ccccc2n1Cc1ccccc1C(F)(F)F inactive

Next record, please: CCN1C(=O)N(C)[C@@H](c2ccccc2)C(C(=O)OC)=C1C inactive

Next record, please: CC(=O)C(C(c1ccccc1)c1c[nH]c2ccccc12)[N+](=O)[O-] (centres undefined) inactive

Next record, please: CC(=O)c1ccc(C(=O)N2CCCC(N3CCN(c4ccc(F)cc4)CC3)C2)s1 (centres undefined) inactive

Next record, please: CCOc1ccc2nc(CN3CCN(Cc4ccccc4OCC)C(CCO)C3)ccc2c1 (centres undefined) inactive

Next record, please: O=[N+]([O-])c1ccccc1CN1CC=C(c2ccc(F)cc2)CC1 inactive

Next record, please: CCOC(=O)C1=C(C)NC(=O)CC1c1cc2c(cc1[N+](=O)[O-])OCO2 (centres undefined) active

Next record, please: CCc1ccccc1NC(=O)N[C@@H](C)C(=O)OC inactive

Next record, please: COc1ccc(N2C(=O)CSC23CCCCC3)cc1 inactive

Next record, please: CSc1cccc(N2C(=O)C3CCCN3C2=S)c1 (centres undefined) inactive

Next record, please: COc1ccc(C(=O)c2c(C)c3cc(C)ccc3n2CC(O)CN2CCOCC2)cc1 (centres undefined) inactive
